tgt: HLA-DR1 (DRB1*0101) (Homo sapiens, UniProt P01903+P01911, A100R/D57E/F55L/F60I/F76Y/I96L/L162R/M171V/P40L/Q125E/R42F/V115G/Y59C)
Construct: endogenous in cells; host or cells: homozygous EBV-transformed human B lymphocyte lines; immunopurified with antibody L243
assayDetails: biochemical
Assay type: binding
conditionDescription: DRB1*0101; competition with biotinylated tracer HA 306-318; read-out: IC50, binding to HLA-DR1
Residues, ends and D or L forms follow the SMILES beside them.
reportedEndpoint: IC50
Show the value, then the unit it is measured in.

Q: Quick one: IC50 for CC[C@H](C)[C@H](NC(=O)[C@H](Cc1c[nH]cn1)NC(=O)[C@@H](NC(=O)[C@H](CC(C)C)NC(=O)CNC(=O)[C@@H](N)[C@@H](C)O)[C@@H](C)O)C(=O)N[C@@H](CC(=O)O)C(=O)N[C@@H](C)C(=O)N[C@@H](Cc1c[nH]cn1)C(=O)N[C@@H](Cc1ccccc1)C(=O)N[C@@H](CC(C)C)C(=O)N[C@@H](CO)C(=O)N[C@@H](CCC(N)=O)C(=O)N[C@H](C(=O)N[C@@H](CCCCN)C(=O)O)[C@@H](C)O [29N 1563-1577] ?
A: 8 nM

Q: Query CC(C)C[C@H](NC(=O)[C@H](Cc1c[nH]c2ccccc12)NC(=O)CNC(=O)[C@H](C)NC(=O)[C@@H](N)Cc1c[nH]c2ccccc12)C(=O)N[C@@H](CC(C)C)C(=O)N[C@@H](CO)C(=O)N1CCC[C@H]1C(=O)N[C@@H](CCCNC(=N)N)C(=O)NCC(=O)N[C@@H](CO)C(=O)N[C@@H](CCCNC(=N)N)C(=O)N1CCC[C@H]1C(=O)N[C@@H](CO)C(=O)N[C@@H](Cc1c[nH]c2ccccc12)C(=O)O [3C 93-107] (H-WAGWLLSPRGSRPSW-OH; N-terminus and C-terminus assumed) next
A: 6330 nM

Q: Query CC(C)C[C@H](NC(=O)[C@H](CC(N)=O)NC(=O)[C@H](CCC(=O)O)NC(=O)CNC(=O)[C@H](CO)NC(=O)[C@H](CCC(N)=O)NC(=O)[C@H](CCCCN)NC(=O)[C@@H](NC(=O)[C@H](CCC(N)=O)NC(=O)[C@H](CO)NC(=O)[C@H](CC(C)C)NC(=O)[C@H](Cc1ccccc1)NC(=O)[C@H](Cc1c[nH]cn1)NC(=O)[C@H](C)NC(=O)[C@@H](N)CC(=O)O)[C@@H](C)O)C(=O)O [29N 1569-1583] next
A: 950 nM

* * *

tgt: HLA-DRB4 (DRB4*0101) (Homo sapiens, UniProt P01903+P13762, G164S)
Construct: endogenous in cells; host or cells: homozygous EBV-transformed human B lymphocyte lines; immunopurified with antibody L243
assayDetails: biochemical
Type: binding
conditionDescription: tracer E2/E168, read-out: IC50, binding to HLA-DRB4
Residues, ends and D or L forms follow the SMILES beside them.
reportedEndpoint: IC50

Q: Quick one: IC50 for CC[C@H](C)[C@H](NC(=O)[C@H](CS)NC(=O)CN)C(=O)N[C@H](C(=O)N[C@H](C(=O)N[C@@H](CO)C(=O)N[C@@H](CC(C)C)C(=O)N[C@H](C(=O)NCC(=O)N[C@@H](CCCNC(=N)N)C(=O)N[C@@H](CC(=O)O)C(=O)N[C@@H](CCCCN)C(=O)N[C@@H](CC(N)=O)C(=O)N[C@@H](CCC(N)=O)C(=O)N[C@H](C(=O)O)C(C)C)[C@@H](C)O)[C@@H](C)O)[C@@H](C)O [9N 1041-1055] (H-GCITTSLTGRDKNQV-OH; N-terminus and C-terminus assumed) ?
A: 65 µM

* * *

tgt: HLA-DRB4 (DRB4*0101) (Homo sapiens, UniProt P01903+P13762, G164S)
Construct: endogenous in cells; host or cells: homozygous EBV-transformed human B lymphocyte lines; immunopurified with antibody L243
assayDetails: biochemical
Assay type: binding
conditionDescription: tracer E2/E168, read-out: IC50, binding to HLA-DRB4
pIC50: −log10 of the molar value.
reportedEndpoint: pIC50

Q: Quick one: pIC50 for CC(C)C[C@H](NC(=O)[C@H](CC(N)=O)NC(=O)[C@H](CCC(=O)O)NC(=O)CNC(=O)[C@H](CO)NC(=O)[C@H](CCC(N)=O)NC(=O)[C@H](CCCCN)NC(=O)[C@@H](NC(=O)[C@H](CCC(N)=O)NC(=O)[C@H](CO)NC(=O)[C@H](CC(C)C)NC(=O)[C@H](Cc1ccccc1)NC(=O)[C@H](Cc1c[nH]cn1)NC(=O)[C@H](C)NC(=O)[C@@H](N)CC(=O)O)[C@@H](C)O)C(=O)O [29N 1569-1583] ?
A: < 4.00

Q: Query CC[C@H](C)[C@H](NC(=O)[C@H](Cc1c[nH]cn1)NC(=O)[C@@H](NC(=O)[C@H](CC(C)C)NC(=O)CNC(=O)[C@@H](NC(=O)[C@H](Cc1ccccc1)NC(=O)[C@@H](NC(=O)CNC(=O)[C@@H](N)CCC(=O)O)C(C)C)[C@@H](C)O)[C@@H](C)O)C(=O)N[C@@H](CC(=O)O)C(=O)N[C@@H](C)C(=O)N[C@@H](Cc1c[nH]cn1)C(=O)N[C@@H](Cc1ccccc1)C(=O)N[C@@H](CC(C)C)C(=O)O [29N 1559-1573] next
A: < 4.00

Q: Query CC[C@H](C)[C@H](NC(=O)[C@H](Cc1c[nH]cn1)NC(=O)[C@@H](NC(=O)[C@H](CC(C)C)NC(=O)CNC(=O)[C@@H](N)[C@@H](C)O)[C@@H](C)O)C(=O)N[C@@H](CC(=O)O)C(=O)N[C@@H](C)C(=O)N[C@@H](Cc1c[nH]cn1)C(=O)N[C@@H](Cc1ccccc1)C(=O)N[C@@H](CC(C)C)C(=O)N[C@@H](CO)C(=O)N[C@@H](CCC(N)=O)C(=O)N[C@H](C(=O)N[C@@H](CCCCN)C(=O)O)[C@@H](C)O [29N 1563-1577] next
A: 4.40

* * *

tgt: HLA-DR1 (DRB1*0101) (Homo sapiens, UniProt P01903+P01911, A100R/D57E/F55L/F60I/F76Y/I96L/L162R/M171V/P40L/Q125E/R42F/V115G/Y59C)
Construct: endogenous in cells; host or cells: homozygous EBV-transformed human B lymphocyte lines; immunopurified with antibody L243
assayDetails: biochemical
Format: binding
conditionDescription: DRB1*0101; competition with biotinylated tracer HA 306-318; read-out: IC50, binding to HLA-DR1
Residues, ends and D or L forms follow the SMILES beside them.
reportedEndpoint: pIC50
On this scale, pIC50 is minus log10 of a concentration expressed in M (mol/L).

Q: Quick one: pIC50 for CC[C@H](C)[C@H](NC(=O)[C@H](CS)NC(=O)CN)C(=O)N[C@H](C(=O)N[C@H](C(=O)N[C@@H](CO)C(=O)N[C@@H](CC(C)C)C(=O)N[C@H](C(=O)NCC(=O)N[C@@H](CCCNC(=N)N)C(=O)N[C@@H](CC(=O)O)C(=O)N[C@@H](CCCCN)C(=O)N[C@@H](CC(N)=O)C(=O)N[C@@H](CCC(N)=O)C(=O)N[C@H](C(=O)O)C(C)C)[C@@H](C)O)[C@@H](C)O)[C@@H](C)O [9N 1041-1055] (H-GCITTSLTGRDKNQV-OH; N-terminus and C-terminus assumed) ?
A: 6.72
